Data origin, for the record: PubChem BioAssay (NCATS)

- SUBJECT_OF_TEST: Aldehyde dehydrogenase, mitochondrial (Homo sapiens)
- PROTOCOL_TEXT: qHTS for Inhibitors of the Aldehyde Dehydrogenase Family (ALDH2) Primary screen (AID 2061308); further: nearly all actives have a fitted effect of over 55% in size
- CONDITION: ALDH2 enzyme inhibition qHTS, 1536-well; series mostly up to 56 µM
Records with an inconclusive call do not appear. Activity calls are given as the source filed them. The call rests on the fitted dose curve; in most records, active means well fitted inhibition curve with a large enough effect; inconclusive means small, poorly fitted or top-dose-only effect; inactive means flat fitted curve, though single readings scatter.
Pick one: active, inactive

compound=N#Cc1nc(Nc2cc(Cl)cc(Cl)c2)nc(NC2CCCC2)n1 subject_of_test="Aldehyde dehydrogenase, mitochondrial (Homo sapiens)" category=inactive

Problem: How was CC1CCC2(C1)N=C(Nc1nc3ccccc3o1)NC1=C2C(=O)CCC1 (stereo unspecified) classified in this test?
Solution: inactive

Problem: How was Nc1ccccc1OCCn1c(CCNC(=O)C2CCCCC2)nc2ccccc21 classified in this test?
Solution: inactive

Problem: How was CCOc1ccc(C(=O)Oc2ccc(-c3nc4ccccc4[nH]3)cc2)cc1Cl classified in this test?
Solution: inactive

Problem: How was O=C(CN1C(=O)N/C(=C\c2cn(-c3cccc(C(=O)O)c3)cn2)C1=O)Nc1ccc(Cl)cc1 classified in this test?
Solution: inactive

Problem: How was CCCCCC1CCC(C(=O)Nc2ccc(S(=O)(=O)Nc3nccs3)cc2)CC1 (stereo unspecified) classified in this test?
Solution: inactive
